Just for reference, ChEMBL document CHEMBL1201862 is where these values come from.

- Tested on: HCT-15
The campaign covered roughly 58,000 sequences. About 4,000 (6.9%) were called active. Not all results are given here. Results with a measured potency or affinity are listed apart.
GI50 for assorted substances
parameter_measured: GI50 (µM)

1) [Bis(aminomethyl)diethylsilane]tetrachloroplatinum(IV), CHEMBL2146203 ... 2.45
2) [Bis(aminomethyl)dimethylsilane]dichloroplatinum (II), CHEMBL2146201 ... 27.5
3) CISPLATIN, CHEMBL11359 ... 7.21
4) [Bis(aminomethyl)tetramethylenesilane]tetrachloropaltinum(IV), CHEMBL2146189 ... 3.62
5) mu-(1,7-nanodiamine-N,N')bis-(cis-aminedichloroplatimum (II)), CHEMBL2146215 ... 37.1
6) cis-Bis[[(trimethylsilyl)methyl]amino]tetrachloroplatinum(IV), CHEMBL2146191 ... 3.42
